The measurements presented in this section are drawn from patent US20250277051A1.

Target: T1, recombinant mouse CD38 protein (mouse, UniProt P56528 45-304, limits assumed, biotin labeled)
T1 construct: also called mouse recombinant CD38 protein; mouse CD38 antigen
T1 sequence (looked up): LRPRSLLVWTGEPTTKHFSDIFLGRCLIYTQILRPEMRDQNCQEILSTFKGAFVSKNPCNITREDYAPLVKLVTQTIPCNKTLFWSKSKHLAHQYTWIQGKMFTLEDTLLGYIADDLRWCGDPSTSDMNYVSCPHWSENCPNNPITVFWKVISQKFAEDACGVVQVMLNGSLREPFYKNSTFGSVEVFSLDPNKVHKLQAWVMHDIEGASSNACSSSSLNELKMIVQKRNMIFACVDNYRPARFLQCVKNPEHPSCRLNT
Assay: ELISA, biotinylated recombinant mouse CD38 captured on a streptavidin plate, OD 450 nm

BINDER	binding result
SEQ ID NO 4 (VHH, Variable-heavy-only (VHO) single domain; also called CD38 5FIO VHO1) VHH: EVQLQESGGGLVQAGHSLRLSCVGSGSRFDNYAMGWFRQAPGKEREFVAAISWSSGTTRYLDTVKGRFTISRDNAKSTVYLQMNSLKPEDTAVYYCAARYQPRYYDSGDMDGYEYDNWGQGTQVTVSS	binds
